# Test system: KM12 colon
# Assay Notes: NCI-60 one-dose screen, 48 h (100 = growth as untreated, 0 = no growth, -100 = all killed)
# Experimental Context: 10 µM unless noted
Compounds without any hit were thinned out: in the full panel of roughly 83,000, 20% have a hit.
# binning rule on growth: 0: < 20%; 1: ≥ 20% and < 90%; 2: ≥ 90%

Worked examples, 10 compounds total:
{"columns": ["Compound", "Group"],
 "data": [
  ["C1CCC([PH+](C2CCCCC2)C2CCCCC2[PH+](C2CCCCC2)C2CCCCC2)CC1.O=C(C1[CH-]CCCC1)C1CCCC[N-]1.[Au] (stereo not drawn)", 0],
  ["COc1cccc2c1c(C(=O)C(=O)Nc1ccn[nH]1)cn2Cc1ccc(F)cc1", 2],
  ["C[N+](C)(C)Cc1cc(Cl)ccc1O", 2],
  ["OCc1ccc2c(c1)OCO2", 2],
  ["COc1cc(/C=C/[N+](=O)[O-])c([N+](=O)[O-])cc1OC", 0],
  ["COc1ccc(Nc2ccc([N+](=O)[O-])cc2[N+](=O)[O-])cc1CN(CCCl)CCCl", 1],
  ["C/C(=C\\c1ccn(-c2ccc(N)cc2)n1)[C@@H]1C[C@@H]2O[C@]2(C)CCC[C@H](C)[C@H](O)[C@@H](C)C(=O)C(C)(C)[C@@H](O)CC(=O)O1", 0],
  ["COC(=O)[C@@H](C)C[C@H](Cc1ccccc1)NC(=O)c1nc([C@@H](C[C@H](C(C)C)N(C)C(=O)[C@@H](NC(=O)[C@H]2CCCN2C)C(C)C)OC(C)=O)sc1C", 0],
  ["CNC(=O)Oc1ccc2c(c1)OCO2", 2],
  ["CC(=O)O[C@H]1C(=O)[C@@]2(C)[C@H]([C@H](OC(=O)c3ccccc3)[C@]3(O)C[C@H](OC(=O)[C@H](OC(=O)OC[C@@H]4COC(C)(C)O4)[C@@H](NC(=O)c4ccccc4)c4ccccc4)C(C)=C1C3(C)C)[C@]1(OC(C)=O)CO[C@@H]1C[C@@H]2O", 0]
]}

Q: Class label required: c1cnc2[nH]cc(-c3csc(-c4cn(CCCCN5CCCCC5)c5ccccc45)n3)c2c1
A: 1

Q: Class label required: COC(=O)[C@@]1(O)C[C@H]2O[C@]1(C)n1c3ccccc3c3c4c(c5c6ccccc6n2c5c31)C(=O)NC4
A: 0

Q: Class label required: CCCCCC1(CCBr)C(=O)NC(=O)NC1=O
A: 2

Q: Class label required: CN[C@@]1(c2ccccc2Cl)CCCC[C@@H]1NCC1CCCO1 (stereo partly drawn)
A: 2

Q: Class label required: C=CCCCCCCCCC(=O)[O-].C=CCCCCCCCCC(=O)[O-].[Zn+2]
A: 2

Q: Class label required: CC[C@H](C)[C@H](NC(=O)NC(C)(C)C)C(=O)N(C)[C@H](C[C@@H](OC(C)=O)c1nc(C(=O)N[C@@H](Cc2ccccc2)C[C@H](C)C(=O)OC)cs1)C(C)C
A: 0

Q: Class label required: COC(=O)CCc1c[nH]c2ccc(N(CCCl)CCCl)cc12
A: 1

Q: Class label required: CC(=O)O[C@H]1CC[C@@]2(C)C(=CC[C@H]3[C@@H]4C[C@@H](N5CC5)[C@H](C(C)=O)[C@@]4(C)CC[C@@H]32)C1
A: 2

Q: Class label required: COC(=O)CC[C@H](Cc1ccccc1)NC(=O)c1csc([C@@H](C[C@H](C(C)C)N(C)C(=O)[C@@H](NC(=O)[C@H]2CCCCN2C)C(C)C)OC(C)=O)n1
A: 1

Q: Class label required: O=C(Nc1ccc(Br)cc1)c1cc(Br)cc(Br)c1O
A: 0

Q: Class label required: CCCCCCCCCCCCCCCCCC1OC[C@@H](COC(=O)O[C@@H](C(=O)O[C@H]2C[C@@]3(O)[C@@H](OC(=O)c4ccccc4)[C@@H]4[C@]5(OC(C)=O)CO[C@@H]5C[C@H](O)[C@@]4(C)C(=O)[C@H](OC(C)=O)C(=C2C)C3(C)C)[C@@H](NC(=O)c2ccccc2)c2ccccc2)O1 (stereo partly drawn)
A: 1

Q: Class label required: C[C@@H]1CCC2[C@@H](C)[C@H](OC(=O)CCC(=O)NCCNC(=O)Cc3cc(=O)oc4cc(N(C)C)ccc34)O[C@@H]3O[C@]4(C)CC[C@@H]1C23OO4 (stereo partly drawn)
A: 1

Q: Class label required: CC[C@H](C)[C@@H]([C@@H](CC(=O)N1CCC[C@H]1[C@H](OC)[C@@H](C)C(=O)N[C@H](C)[C@@H](O)c1ccccc1)OC)N(C)C(=O)[C@@H](NC(=O)[C@@H](NC)C(C)C)C(C)C
A: 0

Q: Class label required: O=C(CC1(O)C(=O)N(Cc2ccccc2)c2ccccc21)c1ccc(C(=O)NCC2CCC3(CC2)OOC2(CCCCC2)OO3)cc1 (stereo not drawn)
A: 0

Q: Class label required: COc1ccc(/C=C\c2cc(OC)c(OC)c(OC)c2)c(NS(=O)(=O)c2ccc(F)cc2)c1O
A: 0
